- protocolText: PET hydrolysis, aromatic products released after 48 h (umol product/mg enzyme); higher = more PET depolymerization activity
- conditionNotes: substrate: cryPow; 60 °C; pH 5.5
Recorded PET hydrolysis by entry

# count of solved cases: 2
ADTPYERGPNPSESLIEQRRGNYDIAQRSISRFSSDGFRNGTIYYPTDTSDGKFGVIAISPGYTAGESSIAWLGSRIASFGFVVVTINTTTRYDQPRQRSTQLLAALDHAMNDSVVGPLIDPERQAVMGHSMGGGGALQAAESRPEIDAVVALTPWNLKKNWDGVDAATLIIGAERDTVASVRTHSIPFYESLTQAEQRGYLELRGASHFAPNVSNTTIAKYSIAWMKRYLDNDDRYDQFLNPGPAVGYASGVSDYRLQ [DP003]: < 3
DQIGQAPTASNITGNGSFATTSASISSTVSGFGGGRVYYPTAAGTYPVIAISPGFTATWSSLAWIGPRLSSWGFVVVGIETNSIYDQPASRGNQLLAALNWAVNSSPTAVRSHVDGSRRGVAGHSMGGGGTLEALAADTTGLVKAGVPLAPWNTDKTWNNVSEPVLIVGGQADTVAPVASHSIPFYNTLAGPKTYVELTGQSHFFPQTTNATASRALVAWFKRWVSQDSRFTPFTCGFSGVAVSDFRSNAC [ESM082]: 23

Task: Returns the measured PET hydrolysis for the input sequence. Input: CAAGGPGASPGLQPTIASLSVDGAFKVMTYTDIPDVPEFGDATVYYPADTPTPIGGVAISPGWTEAQRHINWWGPRLASHGYAVLVLDTNDARRDQPEERAEALIAAVRILRGENDRAESPLQGRVDTGKMAIMGHSMGGGGTLIAANKYPDEIQAAIPFTPWQPDGDFGQITAPTLVMAGSADRVAGVADHAWPHYQSIPETTTKVFMEVDGGNHFIADTRRGTDLGTIGRYGIAWLKLYLDGDERYRSFIYGAEAEVDREKFSRYLTSP [TEP119]
Result: < 3

---

- protocolText: purified protein yield per well (BCA); higher = higher soluble expression
endpoint: purified protein yield per well

Task: Returns the measured purified protein yield per well for the input sequence. Input: GQSCDSLLLQSITNPGPFPVNNIDENSGIRNGPNYNGSTIYYPANNVNTLYSSIIMVPGFMNTELTIQNWGPFFASHGIITMTIGANGLTDTHIQRRDALLDAIVSLKNENQRVASPLFGKIDTFSIAVGGVSKGGGGAQLVPAIDLSIKAIVSLYPWLDNPTSSDLNHSVPVIIISGQLDALAPPSLHADIHYNLTPNTTNKLKYEVAFGTHDVISGPNGGNGEVGIRVISWLQNFLLSDSCYCPITILDASTSSSYITNVVCSNTTVGISQLEPYFLKKVLKIIDVLGREAEGNKNEPLFYIYNDGTVEKKIIIE [TEP017]
Result: < 25 µg

---

- protocolText: purified protein yield per well (BCA); higher = higher soluble expression
Recorded purified protein yield per well by entry
// units = µg; emit number, no label

CVTPAPPPAPDVATVTVGAGNGFGGGTIYYPQGATGRLPVVAASPGFTENQNAVGWYGPLLAREGNIVITIDTNSPFDSPTSRADQLLAAIDYVVNRSSVASIADGSRTAVMGHSMGGGGSLEAALKRPGLKAIIPLAPWNTTTNFSGVRVPTLIVGCQNDAIAPVGSHAEPFYQSIPATTPKAYLEIAGGDHFCTNSENPTIANYVVAWTDRFLQGDTSASSRLCPPPPAGGSISEYRANCPY [ESM050]: 236

Task: Returns the measured purified protein yield per well for the input sequence. Input: ASPYQRGPNPTAASIAATTGPFAIASITVPRGNGFGGGVIYYPTSTSQGTFGGIAISPGLNGTWSGISWLGPRLASQGFVVFGIETNNLNDSPTSRGTQLLAALDYLTQRSSVRSRLDANRLAVMGHSMGGGGALDAALRRPTLKATIGNAPHLPSGSLANDRVPTLIYAMQNDTLVTPARLTSLYNTIPAATERAYIEVTGAGHNYIGQPSTTLARTMIPWLKIFIDSDTRYAPFLCPLNDRSGIRQYRNSCPLI [ESM128]
Result: 407

Task: ADNPHQRGPNPTQASVAASRGTFATSETSVGGGNGFGGAKIYYPTDTSQGKFAALAVSPGYTATWAAEGAWMGHWLASFGFVIIGIDTISRTDWDVARGDQLLAALDYLTQRSSVRDRVDASRVGVMGHSMGGGGAISAGLKRPSLKVVIGNAPYSASQNLTNMRVPVALLAGQRDTTVTPATTNSYYNQVPATTEKMYLELTNAPHSFPTSNNSVMTRKVIPWMKIFLDQDTRYQQFLCPLLDNTGIRTYRSSCPLIGDPMPPADTYRLAGAASGKCADVEGRSQANGAKLLLWTCNGQTNQRWTQTATGELRVYDNPKCVEAGTSAQGTRVTINACNGGNSQKWTVNANGTVTNAVSGRCLDAAGTADNSPIVVNTCTGAGSQNWSKRS [TEP049] ?
Result: 68.7

Task: NPYERGPAPTTSSIEASRGSFATSTTTVSRLAVSGFGGGTIYYPTSTASGTFGAVSIAPGFTATQSSMAWLGPRLASQGFVVFTIDTITTSDQPDSRGRQLLSSLDYLTQQSSVRSRIDSSRLGVVGHSMGGGGTLEAARSRPSLQAAVPLTGWNLTKSWSTVRVPTLVVGAQADTVAPVASHSIPFYTSLPSSLDKAYLELRGASHFAPNSANTTIAKYTLSWLKRFIDDDTRYEQFLCPIPGTSTTISDYRGNCPHAG [ESM140] ?
Result: 187

---

Recorded PET hydrolysis by entry
- protocolText: PET hydrolysis, aromatic products released after 48 h (umol product/mg enzyme); higher = more PET depolymerization activity
- conditionNotes: substrate: cryPow; 60 °C; pH 7.5

# count of solved cases: 3
AQENPYERGPAPTAQNITEDGPFAYATATVPAQSGFAGGAIYYPTDTSQGTFGAVAAVPGFLTPVDDVAWMGPRLASHGFVVFTIEPNSRFEFPSGRAAALKAGLTYLTQSSAVRDRVDPTRLAVAGHSMGGGAALEAALKDPNLKAAVALQPWHTGVNFSTVNVPSMIVGAENDPIASPASHAEPFYEQIPAASEKAYLNLAGVGHEVGGVVTNDTQSSMMLTWLKRYVDNDTRYEPFMCPGPSGSSVLEYRGTCPG [TEP170]: < 3
ADNPYERGPAPTNASIEAVRGPYAVSQATVSSLAVTGFGGGTIYYPTTTSDGTFGAVAISPGYTGTQSSIAWLGPRLASQGFVVFTIDTNTTLDQPDSRGRQLLAALDYLTRVSPLRTRVDSTRLGVMGHSMGGGGSLEAAKSRPSLQAAIPLTPWNLDKTWPEIQTPTLIVGADGDSIAPVSSHAEPFYENLPSSLDRAYLELNGASHFAPNSSNTTIAKYSISWLKRFIDNDTRYEQFLCPLPRPSLTIEEYRGNCPHQS [TEP188]: < 3
ADNPYERGPDPTESSIEASRGPFAVSQTTVSSLAVTGFGGGTIYYPTDTSQGTFGAVAISPGYTADQSSIAWIGPRLASQGFVVFTIDTITRYDQPASRGDQLLAALDYLTQRSSVRGRIDSSRLGVAGHSMGGGGTLEAAEERPSLQAAVPLAPWNLQKNFSGVRVPTFIIGGESDTVAPVATHSEPFYTSLPSTLDKAYMELNNASHFFPNTPNTTMAKYMISWFKRFIDDDTRYDQFLCPNPSGLAIEEYRSTCPY [TEP089]: < 3

Task: Returns the measured PET hydrolysis for the input sequence. Input: AENPYQRGPDPTLAALAASAGPYPIMETVVGSAEVTNFGGASIYYPAGTADGTFGGVAVTPGFLGPRSTMEWVARRVASHGFVVINIDTLERNDTPPLRARQMLAALDYLTGASAVRDRVDPTRLAVMGHSMGGGGSLQASRQRPQLKAAVPLTPWSNDKDFSADVVPTLIIGAELDDTAPVAEHAEPFFESIAAARKAYLELNDAEHRAPIRTNETIGTYSVAWLKRFVDDDTRYEQFLCPPPAPSAAIEEFRGTCPSS [TEP106]
Result: < 3

Task: MSNPYQRGPNPTRSALTADGPFSVATYTVSRLSVSGFGGGVIYYPTGTSLTFGGIAMSPGYTADASSLAWLGRRLASHGFVVLVINTNSRFDGPDSRASQLSAALNYLRTSSPSAVRARLDANRLAVAGHSMGGGGTLRIAEQNPSLKAAVPLTPWHTDKTFNTSVPVLIVGAEADTVAPVSQHAIPFYQNLPSTTPKVYVELCNASHIAPNSNNAAISVYTISWMKLWVDNDTRYRQFLCNVNDPALCDFRTNNRHCQLEHHHHHH [LCC-ICCG] ?
Result: 236

Task: AGNPYQRGPDPTLASVAASRGTFATAQVSVPAGNGFNGGTIYYPTDSSQGTWGAVAIVPGYTALFANEEAWMGPWLASFGFVVIGIETNSRTDFDTARGTQLLAALDYLTQKSPVRDRVDSARLGVIGHSMGGGGVVYATEHRPSLKAAVALAPFSPSQDMSTDHVPTMVMGGQNDTVVTPSYLDGLYATMPASTQSDFVQLAGADHVAYTHPNTTEMRLLIPWLKIFLDDDTRYTQFLCPLMDSTGVSAYHSKCPYVPPGGSTSTPTPTPTITPTPPPSGACSATYRTVNSWSGGYQGEVTVTAGDAAINGWTVRWNLGGGQTVTQVWNGTLSTSGSTATVTNASYNGSLQASASTTFGFLANGTPSTPAITCTSP [TEP114] ?
Result: < 3

Task: ATTSYQRGPNPTEQSVRAANGPFAYSQFAIPDAEATGFGEGTIYYPNNTSVGTFGGVVIAPGFNADQNSTVWLGKRLASHGFVAVTITTHELNDQPYERGKQILAALDYLTGQSPAFVRSRLDPARLAAVGHSMGGGGTLFAAAQRPSLKAIVPLAPWALAKNWSNVQVPTMILSGAQDASAPPAEHAEKFYASLTSAPEKAYAKLDVNHVRFAWEHPLIGKLVVSWLKRFVDEDTRYTQFLCPTATGAVLLEYRATCPLG [DP026] ?
Result: < 3

Task: AANPYQRGPAPTAASVAAVTGPFATASVSVPRGNGFGGGVIYYPTDTSQGTFGGLAISPGLNGTWPGIAWLGSRLASQGFIVFGIETNNLNDSPTSRGTQLLAALDYLAQRSSVRSRLDPGRLAVAGHSMGGGGALDAALRRPSLKAAIGNAPYLPSNTLAGNRVPTLIYAMQNDTLVPPSRLTSLYNTIPATTERAYLEITGAGHNYIGQPSTTLARTMIPWLKIFIDNDTRFSQFLCPLADQSGIRQYRSSCPLVPATTRALTAAAG [DP043] ?
Result: 98

Task: QAPDRTALARTGPYQVAYYTQLPPAAEFSAATLFFPANKAQAFGGVVIAPGYTEKQVNVQWWGYHLASHGYAVLVLDTNDPEEYPDRRADALMAGVAVLRGENTRMGSTLRGKILEGRIALMGHSMGGGGTLLAANGHSDQLKTIIPFTPWLPGADFSAVSVPTLVLAGEIDRIAAVKDHAWPHYESLTGAVPRMYLEVKGGNHYIANSMTDREDRNPNIDVHDLVGSMVVAWLKTFLDDDESYRELVFGDLPEADRVRISRLEFVE [TEP006] ?
Result: < 3

Task: ADNPYQRGPDPTRASVAAVNGPFVNTSVSVPTGYGFNGGRIYYPTDTSQGTFGAIAISPGYTALFSAELAWMGPWLASHGFVVIGIETNSRNDFDTARGTQLLAALDYLTQQSPVRDRVDPNRLAVSGHSMGGGGALSAAIRRSSLKAAVGITPYSPSQNLANDRVPTMVISGQADTVVTPSYALGLYNSLPASTESVYLEVAGGDHGFMVGRSNPVLIRTMLPFLKMFVDNDSRYSQFLCPLLDSSGVVTYRSTCPLLPTNPTTPPPTGTPTPTPTSTPTPTPTPTTPPPSGSANE [ESM091] ?
Result: < 3
